target: TDP-43 (Homo sapiens, UniProt Q13148 1-414); assay: RNA Bind-n-Seq with designed 260-mer pool; 25 mM Tris-HCl, 150 mM KCl, 3 mM MgCl2, BSA (printed 500 mg/mL), 20 units/mL SUPERase IN; pH not stated; 500 nM RNA pool, 1 h, 4 C; TDP-43 5, 50, 500 nM; high values mean tight binding; details: protein: recombinant; tags: SBP (GST cleaved off with PreScission; pGEX-GST-SBP)
Sequence (Q13148 whole entry): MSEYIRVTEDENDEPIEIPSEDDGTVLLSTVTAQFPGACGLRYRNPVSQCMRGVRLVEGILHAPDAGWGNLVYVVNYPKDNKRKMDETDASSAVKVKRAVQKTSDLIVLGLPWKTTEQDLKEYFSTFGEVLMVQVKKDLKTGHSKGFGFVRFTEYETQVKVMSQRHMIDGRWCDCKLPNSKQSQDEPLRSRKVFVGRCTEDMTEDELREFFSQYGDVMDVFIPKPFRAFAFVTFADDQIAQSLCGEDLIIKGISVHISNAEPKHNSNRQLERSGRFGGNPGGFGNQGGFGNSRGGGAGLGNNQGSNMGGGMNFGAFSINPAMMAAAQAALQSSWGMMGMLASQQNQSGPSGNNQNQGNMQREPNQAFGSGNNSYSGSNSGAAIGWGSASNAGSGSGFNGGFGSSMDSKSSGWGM
Whole data set: some 9,900 sequences, median “r (bound/input frequency ratio)” near 0.7, cut for the highest 2% near 6.5. For the sample, the highest values were picked, then their nearest neighbours and some sequences at random.
Here the recorded binding signal is given for each entry.
REPORTED ENDPOINT: binding signal

{"BINDER": "ENSMUSG00000061578.1490|Ksr2 (ssRNA) RNA: GGGAGUUCUACAGUCCGACGAUCGCUUCGAUAUCCGCAUGCUAGGUAGAAGGGUGAGUGGGUGGAUGAAUGGAUGGAUAGGUUGGUAGGUUAAUGUAUUCGUGGAUGGGUGAAUGGAUGGAUGGAUAGAUAGAUGGGAAGGUGGAUGGACAGAUGGAUGGAUGGAUAGAUAGAUGGACAGGUGGUUGGUGGAUAAAUGAGUGAAUGAUUAUGUUGAUAGAUAUGUGGGUAGGCUGAAUGGGUGAAUGGAUAGAUCGAUGACUGGAUGGAGGGUGGGUGACUGUAUAGGCAGGUGGGUAGGUAGCUCUUGCGGUCGCACUAGUGUGGAAUUCUCGGGUGUCAAGG", "REPORTED ENDPOINT": "binding signal", "READOUT VALUE": "11.2 R (bound/input frequency ratio)"}
{"BINDER": "ENSMUSG00000058297.37|Spock2 (ssRNA) RNA: GGGAGUUCUACAGUCCGACGAUCGCUUCGAUAUCCGCAUGCUACCUGGCUCCAGUGGGGGAGGACUGGGGAGUGUGGCUUGUGUGUAUGUGUGAUAUGAGAUGUGUGUGUAUGAUGUGAGAUGUGAGUGUGUGAUGUGAGAUGUGUGUAUGUGAGAUGUGUGUGUGUGUGUGUGUGUGUGUGAUGUGAGUCACCCAAAGGUCCCUAUGUUAUUGAUUUUCAAAUGCACACUUUCACACACAAGGAUACACUAACAGACCAAAAUCAAUGAGAUGUCCCUGAUCCUGCCCCUCAGCCCAACACCCUCUUGCGGUCGCACUAGUGUGGAAUUCUCGGGUGUCAAGG", "REPORTED ENDPOINT": "binding signal", "READOUT VALUE": "6.03 R (bound/input frequency ratio)"}
